# Test system: SW-620 colon
# assay remarks: NCI-60 one-dose screen, 48 h
# cond: 10 µM unless noted
The panel holds about 83,000 compounds, 20% with a hit somewhere; the sample as a whole holds those more often. Active and inactive are the calls of the source. How the source made its calls: active means growth percent below 10; inactive means the rest.
Tick one outcome: active, inactive

{"columns": ["compound", "class"],
 "data": [
  ["COc1ccc2[nH]cc(-c3csc4nc(-c5ccccc5)cn34)c2c1", "inactive"],
  ["COc1ccc(NC(=O)Nc2ccc3c(ccn3C(=O)c3cccc(F)c3)c2)cc1", "inactive"],
  ["Cc1ccc(S(=O)(=O)NCCNc2nc(Nc3ccc(N4CCN(C)CC4)cc3)nc3ccsc23)cc1", "inactive"]
]}

Exercise: Per the records of this test, what outcome belongs to C[C@H](CCC(=O)NCc1ccc(C(=O)Nc2ccccc2N)cc1)[C@H]1CC[C@H]2[C@@H]3[C@@H](O)C[C@@H]4C[C@H](O)CC[C@]4(C)[C@H]3CC[C@]12C ?
Key: inactive

Exercise: Per the records of this test, what outcome belongs to CC1(C)[C@@H](O)CC[C@]2(C)[C@H]3CC[C@@H]4[C@H]5[C@H](C(=O)/C=C\c6ccccn6)CC[C@]5(O)CC[C@@]4(C)[C@]3(C)CC[C@@H]12 ?
Key: inactive

Exercise: Per the records of this test, what outcome belongs to COc1ccc(/C=C(\C#N)C(=O)N2c3ccccc3Sc3ccc(SC)cc32)cc1F ?
Key: inactive

Exercise: Per the records of this test, what outcome belongs to COc1cccc2cc(-c3cc4ccccc4[nH]3)/c(=N\NC(=O)c3ccc(Cl)cc3)oc12 ?
Key: inactive

Exercise: Per the records of this test, what outcome belongs to NC(N)=Nc1ccc(Oc2cccc(Nc3ccc(Cl)c(C(F)(F)F)c3)c2)cn1 ?
Key: active

Exercise: Per the records of this test, what outcome belongs to COc1ccc2c(c1)c(CC(=O)[Se]CC(=O)O)c(C)n2C(=O)c1ccc(Cl)cc1 ?
Key: inactive

Exercise: Per the records of this test, what outcome belongs to O=C(Nc1cccc(Cl)c1)Nc1nc2ccc([N+](=O)[O-])cc2o1 ?
Key: active

Exercise: Per the records of this test, what outcome belongs to C#Cc1ccc(C(=O)NCc2ccc(/C=C/C(=O)c3nccn3C)cc2)cc1 ?
Key: inactive

Exercise: Per the records of this test, what outcome belongs to CCN1CCN(Cc2cn(-c3ccc(S(N)(=O)=O)cc3)nn2)CC1 ?
Key: inactive

Exercise: Per the records of this test, what outcome belongs to O=C1CCCC2=C1C(c1c[nH]c3ccc(Br)cc13)Cc1cc(Br)ccc1N2 (stereo unspecified) ?
Key: inactive

Exercise: Per the records of this test, what outcome belongs to C/C(=N\O)[C@H]1C[C@]23CC[C@]4(C)[C@H](CC[C@@H]5[C@@]6(C)CC/C(=N/O)C(C)(C)[C@@H]6CC[C@]54C)[C@H]2[C@H](C)C1(C)OC3 ?
Key: inactive

Exercise: Per the records of this test, what outcome belongs to COc1cc(/C=C2\C(=O)Nc3ccccc32)ccc1OCc1ccc(F)cc1 ?
Key: inactive

---

# Test system: BT-549 breast
# assay remarks: NCI-60 one-dose screen, 48 h (100 = growth as untreated, 0 = no growth, -100 = all killed)
# cond: 10 µM unless noted
This is part of a sample that, as a whole, favours compounds with a hit. Of some 83,000 tested, about 20% had one in any assay. The source made the active and inactive calls. How the source made its calls: active means growth percent below 10; inactive means the rest.
Reported growth values follow for various compounds

Known results for compounds:
{"columns": ["compound", "result value"],
 "data": [
  ["CCOC(=O)c1c(NC(=O)c2ccccc2C(F)(F)F)sc2c1CCC(=O)C2", "11.1% (inactive)"],
  ["CNC(=O)c1cc(-c2ccc(NS(=O)(=O)c3ccc(C)cc3)cc2)nc2cccnc12", "110% (inactive)"],
  ["NS(=O)(=O)c1ccc(-n2cc(-c3cccc(NC(=O)c4ccc(N5CCOCC5)c(C(F)(F)F)c4)c3)nn2)cc1", "73.2% (inactive)"]
]}

Exercise: Report growth for O=S(=O)(NCCCNc1nccc(-c2[nH]c(-c3ccccc3)nc2-c2ccc(Cl)c(O)c2)n1)c1cccc(F)c1 please.
Key: 59.7% (inactive)

Exercise: Report growth for CCNC(=O)N1CCc2cc(OC)c(OCCc3ccc(OC)cc3)cc2C1c1ccc(Cl)cc1C (stereo not drawn) please.
Key: -1.91% (active)

Exercise: Report growth for NS(=O)(=O)c1ccc(-n2cc(CN3CCNCC3)nn2)cc1 please.
Key: 110% (inactive)

Exercise: Report growth for COc1cc2oc(-c3cccc(C(=O)N[C@@H](CC(C)C)C(=O)OC(C)(C)C)c3)cc(=O)c2c(OC)c1OC please.
Key: 67.5% (inactive)

Exercise: Report growth for N#Cc1cnc2ccc(-c3cnc4[nH]ncc4c3)cc2c1N1CCc2cc(F)c(Cl)cc21 please.
Key: 20.1% (inactive)

Exercise: Report growth for NC(N)=Nc1ccc(Oc2cccc(Nc3ccc(Cl)c(C(F)(F)F)c3)c2)cc1 please.
Key: 77% (inactive)

Exercise: Report growth for CCN1CCN(Cc2ccc(C(=O)Nc3ccc(C)c(Oc4ccc(-c5[nH]nc6ncnc(N)c56)cc4)c3)cc2C(F)(F)F)CC1 please.
Key: 109% (inactive)

Exercise: Report growth for Cc1ccc2c(c1)C(=O)/C(=C/c1cccc(F)c1)S2 please.
Key: 134% (inactive)
